assay.target: T1, cynomolgus soluble urokinase plasminogen activator receptor (cynomolgus suPAR) (cynomolgus, UniProt Q9GK78 23-303, limits assumed)
T1 construct: also called cynomolgus uPAR; cynoPLAUR-His
T1 sequence (Q9GK78 23-303 limits assumed): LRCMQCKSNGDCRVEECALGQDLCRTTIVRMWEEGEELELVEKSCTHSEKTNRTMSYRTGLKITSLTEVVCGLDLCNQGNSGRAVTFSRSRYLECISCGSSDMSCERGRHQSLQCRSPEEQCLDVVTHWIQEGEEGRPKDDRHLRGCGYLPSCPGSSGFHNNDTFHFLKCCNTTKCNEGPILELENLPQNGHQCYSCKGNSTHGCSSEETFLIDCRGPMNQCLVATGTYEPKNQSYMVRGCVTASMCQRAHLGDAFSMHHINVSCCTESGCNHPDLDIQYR
test.method.notes: BLI (Octet) off-rate screen of scFv
For each record, write down the corresponding koff.
Numbers only, in s⁻¹.

Take each entry in turn and give its koff.
1. suPAR_DB02_A04 (scFv, V domains shown, Screened as scFv) VH: QVQLVQSGAEVKKPGASVKVSCKASGYTFTGYYVHWVRQAPGQGLEWMGWIDHENGNTIYDQKFQGRVTMTRDTSTSTVYMELSSLRSEDTAVYYCARGYDVDWFVYWGQGTLVTVSS VL: DIQMTQSPSSLSASVGDRVTITCRASSSVSYMYWYQQKPGKAPKLLIYRTSNLASGVPSRFSGSGSGTDFTLTISSLQPEDFATYYCQQYHSYPPTFGGGTKVEIK
2. suPAR_DB01_G12 (scFv, V domains shown, Screened as scFv) VH: QVQLVQSGAEVKKPGASVKVSCKASGDTFSNYYMHWVRQAPGQGLEWMGWIDHENGNTIYDQKFQGRVTMTRDTSTSTVYMELSSLRSEDTAVYYCARGYDVDWFVYWGQGTLVTVSS VL: DIQMTQSPSSLSASVGDRVTITCSARSSISYMYWYQQKPGKAPKLLIYRTSNLASGVPSRFSGSGSGTDFTLTISSLQPEDFATYYCQQYHSYPPTFGGGTKVEIK
3. suPAR_DB02_A10 (scFv, V domains shown, Screened as scFv) VH: QVQLVQSGAEVKKPGASVKVSCKASGYTFTGNYMHWVRQAPGQGLEWMGWIDHENGNTIYDQKFQGRVTMTRDTSTSTVYMELSSLRSEDTAVYYCARGSDVDWFVYWGQGTLVTVSS VL: DIQMTQSPSSLSASVGDRVTITCSARSSVSYMYWYQQKPGKAPKLLIYRTSNLASGVPSRFSGSGSGTDFTLTISSLQPEDFATYYCQQYHSYPPTFGGGTKVEIK

Reply |
1. 0.000521
2. 0.000247
3. 0.00024

The origin of these recorded values is patent US20250215104A1.
